- Test system: acetylcholine receptor
- Method notes: SPR, receptor immobilized, peptide 10 uM
Endpoint: Binding affinity (RU)

>  <Binder>
KEAPK [5mer-794]

>  <Unit info>
RU

>  <Binding affinity (RU)>
20

$$$$
>  <Binder>
RNMEK [5mer-766]

>  <Unit info>
RU

>  <Binding affinity (RU)>
30

$$$$
>  <Binder>
RNCERR [6mer-2-852]

>  <Unit info>
RU

>  <Binding affinity (RU)>
28

$$$$
>  <Binder>
RKQFQK [6mer-1-171]

>  <Unit info>
RU

>  <Binding affinity (RU)>
123

$$$$
>  <Binder>
RKCAKK [6mer-2-864]

>  <Unit info>
RU

>  <Binding affinity (RU)>
12

$$$$
>  <Binder>
KDNIR [5mer-787]

>  <Unit info>
RU

>  <Binding affinity (RU)>
17

$$$$
>  <Binder>
KCSAKK [6mer-2-799]

>  <Unit info>
RU

>  <Binding affinity (RU)>
13

$$$$
>  <Binder>
RFWVK [5mer-1066]

>  <Unit info>
RU

>  <Binding affinity (RU)>
25

$$$$
>  <Binder>
KPNHRK [6mer-2-841]

>  <Unit info>
RU

>  <Binding affinity (RU)>
33

$$$$
>  <Binder>
RMDFRK [6mer-2-859]

>  <Unit info>
RU

>  <Binding affinity (RU)>
21

$$$$

(I) RIDHRK [6mer-2-875]
(II) RRSVTK [6mer-1-156]
(III) KAPDRK [6mer-2-843]
Problem: Place the items in sequence of falling Binding affinity (RU). Hello, could you send the labels back in the order asked? Thank you.
Solution: II, III, I

(I) RKMGKR [6mer-2-816]
(II) RKLYYR [6mer-1-190]
Problem: Thinking about recorded Binding affinity (RU) values, which is higher, I or II ? // caller expects the label of the chosen entry
Solution: II
(II: 153 RU, I: 15 RU)
